Kd for assorted binders
# TARGET: T1, human HIF-1α PAS-B (238-349), recombinant, His-tagged (human, UniProt Q16665 238-349, labelled with Monolith NT-647 dye for MST)
# T1 construct: range 238-349; Expressed in E. coli BL21(DE3)-Rosetta from pET28a; also called HIF-1α PAS-B domain; PAS-B domain of HIF-1α; not shown: His tag from pET28a vector (BamHI/SacI cloning)
# T1 sequence (Q16665 238-349): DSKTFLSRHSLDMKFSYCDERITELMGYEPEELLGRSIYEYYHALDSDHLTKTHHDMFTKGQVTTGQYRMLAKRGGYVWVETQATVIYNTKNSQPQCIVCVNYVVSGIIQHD
# TEST SUMMARY: MST, NT-647-labelled recombinant PAS-B domain

BINDER: CKLIIF (head-to-tail cyclic (cyclo-), also called CKLIIF; cyclic peptide #1) [cyclo-cys lys leu ile ile phe]
Kd: ~2 µM
--
BINDER: CRVIIF (head-to-tail cyclic (cyclo-), also called CRVIIF; cyclic peptide #3) [cyclo-cys arg val ile ile phe]
Kd: 61 µM
